Each recorded value in this set is attributed to ChEMBL document CHEMBL1133631.

Test system: IP3 receptor (Rattus norvegicus)
Experiment: [Ca2+] release with 10 uM was measured by non-specific binding method.
Readout Kind: IP3-sensitive Ca2+ stores (%)

compound="CCCOC1O[C@H](CO)[C@H](O[C@@H]2OC(CO)[C@H](OP(=O)(O)O)C(OP(=O)(O)O)[C@@H]2O)[C@@H]1OP(=O)(O)O (stereo not given in full)" system_under_test="IP3 receptor (Rattus norvegicus)" readout_kind="IP3-sensitive Ca2+ stores" unit_spec=% meas_value=87
compound="O=P(O)(O)OC1[C@@H](OP(=O)(O)O)C(CO)O[C@@H](O[C@@H]2[C@H](OP(=O)(O)O)C(OCCCc3ccc(CCCOC4O[C@H](CO)[C@H](O[C@@H]5OC(CO)[C@H](OP(=O)(O)O)C(OP(=O)(O)O)[C@@H]5O)[C@@H]4OP(=O)(O)O)cc3)O[C@@H]2CO)[C@H]1O (stereo not given in full)" system_under_test="IP3 receptor (Rattus norvegicus)" readout_kind="IP3-sensitive Ca2+ stores" unit_spec=% meas_value=92
compound="O=P(O)(O)OC1[C@@H](OP(=O)(O)O)C(CO)O[C@@H](O[C@@H]2[C@H](OP(=O)(O)O)C(OCCCc3ccccc3)O[C@@H]2CO)[C@H]1O (stereo not given in full)" system_under_test="IP3 receptor (Rattus norvegicus)" readout_kind="IP3-sensitive Ca2+ stores" unit_spec=% meas_value=87
compound="O=P(O)(O)OC1[C@@H](OP(=O)(O)O)C(CO)O[C@@H](O[C@@H]2[C@H](OP(=O)(O)O)C(OCCCc3cc(CCCOC4O[C@H](CO)[C@H](O[C@@H]5OC(CO)[C@H](OP(=O)(O)O)C(OP(=O)(O)O)[C@@H]5O)[C@@H]4OP(=O)(O)O)c(CCCOC4O[C@H](CO)[C@H](O[C@@H]5OC(CO)[C@H](OP(=O)(O)O)C(OP(=O)(O)O)[C@@H]5O)[C@@H]4OP(=O)(O)O)cc3CCCOC3O[C@H](CO)[C@H](O[C@@H]4OC(CO)[C@H](OP(=O)(O)O)C(OP(=O)(O)O)[C@@H]4O)[C@@H]3OP(=O)(O)O)O[C@@H]2CO)[C@H]1O (stereo not given in full)" system_under_test="IP3 receptor (Rattus norvegicus)" readout_kind="IP3-sensitive Ca2+ stores" unit_spec=% meas_value=101
compound=CO[C@@H]1O[C@H](CO)[C@@H](O[C@H]2O[C@@H](CO)[C@@H](OP(=O)(O)O)[C@H](OP(=O)(O)O)[C@@H]2O)[C@H]1OP(=O)(O)O system_under_test="IP3 receptor (Rattus norvegicus)" readout_kind="IP3-sensitive Ca2+ stores" unit_spec=% meas_value=89
